Each entry below carries its reported pEC50.
- TESTED TARGET: γ2δ3 TCR-hFc mutant S7 (D57N, R65Q in the Vδ3 chain) (human) (UniProt B7Z8K6)
- ASSAY DETAILS: Luminex beads; TCR-hFc captured by goat anti-human Fc; antibody titrated
Just the number, please; pEC50 means minus log10 of the concentration in mol/L.

{"BINDER": "δ3-08 (antibody, V domains shown) VH: EEKLEESGGGLVQPGGSMKLSCVASGFIFSIYWMNWVRQSPEKGLEWVGQIRLKSDNYATHYAESVKGRFTISRDDSKSSVYLQMNNLRAEDTGIYYCMYYGSSYERFAYWGQGTLVTVSA VL: DIQMIQSPASLSVSVGETVTITCRASENIYSNLAWYQQKQGKSPQLLVYVATKLADGVPSRFSGSGSGTQYSLKINSLQSEDFGSYYCQHFWGTPPWTFGGGTKLEIK", "pEC50": 10.15}

Short answer for δ3-23 (antibody, V domains shown) VH: EVQLQQSGAELVKPGASVKLSCTASGFNIRDTYMHWVKQRPEQGLEWIGRIDPANGNTKYDPKFRGKATITADTSSNTAYLQLSSLTSEGTAVYYCSEGIYFDYWGQGTTLTVSS VL: DILLTQSPAILSVSPGERVSFSCRASQNIGTIIHWYQQRANGSPRLLIKYASESISGIPSRFSGSGSGTDFTLSINSVESEDIADYYCQQSNSWPYTFGGGTKLEIKR : pEC50 was 10.40

Short answer for δ3-42 (antibody, V domains shown) VH: DVQLQESGPDLVKPSQSLSLTCTVTGYSITSGYNWHWIRQFPGNKLEWMGYIHYSGNTDYNPSLRSRISITRDTSKNQFFLHLNSVPTEDTATYYCARSGITTDWYFDVWGAGTTVTVSS VL: QIVLSQSPAILSASPGEKVTMTCRASSSVNYMHWYQQKPGSSPKPWIYATSNLASGVPARFSGSGSGTSYSLTISKVEAEDAATYYCQQWSSHQPTFGAGTKLELK : pEC50 was 9.82

Short answer for δ3-31 (antibody, V domains shown) VH: DVQLQESGPDLVKPSQSLSLTCTVTGYSITSGYGWHWIRQFPGNKLEWMGYISFSGSNKYNPSLKSRISITRDTSKNQFFLQLNSVTTEDTATYYCANLDYWGQGTTLTVSS VL: DIQMTQRTSSLSASLGDRVTISCSASQDITNYLHWFQQKPDGTVKLLIYYTSTLHSGVPSRFSGSGSGTDYSLTISNLEPEDIATYYCQQYSKLPYTFGGGTKLEITR : pEC50 was 10.30

Short answer for δ3-58 (antibody, V domains shown) VH: EVKLVESGGGLVQPGGSLKLSCAASGFTFSSYAMSWVRQTPEKRLEWVAYIRDGGGGTYYPDTVEGRFTISRDNAKNTLYLQMSSLKSEDTAMYYCARHPPMNDWFLYWGQGTLVTVSA VL: DIQMTQSPASLSVSVGETVTITCRASENIYSHLAWYQQKQGKSPQLLVYAATNLADGVPSRFSGSGSGTQYSLKINSLQSEDFGSYYCQHFWGTPYTFGGGTKLEIKR : pEC50 was 10.40
